Data credit: the supplement of paper PMC11451515

- Tested on: NOMO1
- assay-info: cell viability relative to DMSO control; higher = less cytotoxic
- assay-context: HPLM + 10% dialyzed FBS; 48 h; 0.0632 µM
property-label: cell viability (%)
The figure you give is taken to be in %; do not add the unit.

Specify cell viability for CC(C)(C)OC(=O)CN(Cc1ccc(Cl)cc1)Cc1ccc([N+](=O)[O-])s1 and stop. 101

Specify cell viability for COc1ccc(/C=C\c2cc(OC)c(OC)c(OC)c2)cc1O and stop. 44.6

Specify cell viability for O=C(O)[C@H](Cc1c[nH]c2ccccc12)N1C(=O)c2ccccc2C1=O and stop. 110

Specify cell viability for CCOC(=O)Nc1ccc(NCc2ccc(F)cc2)cc1N and stop. 116

Specify cell viability for Cc1ccc(NC(=O)C2(c3ccc4c(c3)OC(F)(F)O4)CC2)nc1-c1cccc(C(=O)O)c1 and stop. 98.8

Specify cell viability for C#CCN(C)[C@H](C)Cc1ccccc1 and stop. 76.7

Specify cell viability for NC(=O)N1c2ccccc2CC(=O)c2ccccc21 and stop. 123

Specify cell viability for ClC1=CC=C(CCCOC/2=N/NC(=O)C(=C2NCC3=CN=CC=C3)/Br)C=C1 and stop. 115

Specify cell viability for CN(C)CCOC(c1ccccc1)c1ccccc1 and stop. 111

Specify cell viability for CN(C)Cc1ccc(-c2nc3cccc4c3n2CCNC4=O)cc1 and stop. 124

Specify cell viability for CC#C[C@]1(O)CC[C@H]2[C@@H]/3CCC/4=C/C(=O)CCC4=C3[C@H](C[C@]12C)C5=CC=C(C=C5)N(C)C and stop. 103

Specify cell viability for O=C1NC(=O)[C@@H](c2cn3c4c(cccc24)CCC3)[C@@H]1c1c[nH]c2ccccc12 and stop. 107

Specify cell viability for CC[C@]1(O)C[C@H]2CN(CCC3=C([NH]C4=C3C=CC=C4)[C@@](C2)(C(=O)OC)C5=CC6=C(C=C5OC)N(C=O)[C@H]7[C@](O)([C@H](OC(C)=O)[C@]8(CC)\C=C/C[N@@]9CC[C@]67[C@H]89)C(=O)OC)C1 and stop. 35.3

Specify cell viability for C=C(C)[C@@H]1CC[C@]2(C)CC[C@]3(C)[C@H](CC[C@@H]4[C@@]5(C)CC[C@H](O)C(C)(C)[C@@H]5CC[C@]43C)[C@@H]12 and stop. 115

Specify cell viability for O=C/1\C=C(/OC(=C1)/C2=C3SC4=C(SC3=CC=C2)C=CC=C4)N5CCOCC5 and stop. 112

Specify cell viability for O=C1c2c(O)cccc2[C@H]([C@@H]2O[C@H](CO)[C@@H](O)[C@H](O)[C@H]2O)c2cc(CO)cc(O)c21 and stop. 110

Specify cell viability for Nc1nc(-c2nn(Cc3ccccc3F)c3ncccc23)nc(N)c1N1CCOCC1 and stop. 119

Specify cell viability for N[C@@H](C(=O)N[C@H]1[C@H]2SC\C(=C(/N2C1=O)C(O)=O)Cl)C3=CC=CC=C3 and stop. 150

Specify cell viability for COc1cc2nccc(Oc3ccc(NC(=O)Nc4ccc(F)cc4F)c(F)c3)c2cc1OC and stop. 89.9
